Reported EC50 values for the following binders.
Target: soluble histidine-tagged form of human TLR4/MD2 complex (human, UniProt Q9Y6Y9 19-160)
Sequence (Q9Y6Y9 19-160, one chain of several): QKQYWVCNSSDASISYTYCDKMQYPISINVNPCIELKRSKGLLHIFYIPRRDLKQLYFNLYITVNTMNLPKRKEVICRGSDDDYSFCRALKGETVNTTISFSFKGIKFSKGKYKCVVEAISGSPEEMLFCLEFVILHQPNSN
Experiment: competitive ELISA; coated 15C1 as competitor, soluble His-tagged human TLR4/MD2, Penta-His-HRP
Property Name: EC50 (µg/mL)

>>> quantitative_result("humanized anti-TLR4 antibody 15C1 (antibody, V domains shown, also called 15C1 Mab; parental antibody 15C1) VH: QVQLQESGPGLVKPSDTLSLTCAVSGYSITGGYSWHWIRQPPGKGLEWMGYIHYSGYTDFNPSLKTRITISRDTSKNQFSLKLSSVTAVDTAVYYCARKDPSDAFPYWGQGTLVTVSS VL: EIVLTQSPDFQSVTPKEKVTITCRASQSISDHLHWYQQKPDQSPKLLIKYASHAISGVPSRFSGSGSGTDFTLTINSLEAEDAATYYCQQGHSFPLTFGGGTKVEIK")
0.63
>>> quantitative_result("1E11.C4 antibody (IgG1) (antibody, V domains shown) VH: QVQLQESGPGLVKPSDTLSLTCAVSGFPIGQGYSWHWIRQPPGKGLEWMGYIHYSGYTDFNPSLKTRITISRDTSKNQFSLKLSSVTAVDTAVYYCARKDSGNYFPYWGQGTLVTVSS VL: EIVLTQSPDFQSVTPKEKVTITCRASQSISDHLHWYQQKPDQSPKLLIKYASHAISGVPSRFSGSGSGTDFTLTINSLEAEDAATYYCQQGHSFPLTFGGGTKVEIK")
0.251
>>> quantitative_result("1E11.C2E5 antibody (IgG1) (antibody, V domains shown) VH: QVQLQESGPGLVKPSDTLSLTCAVSGYPIRFGYSWHWIRQPPGKGLEWMGYIHYSGYTDFNPSLKTRITISRDTSKNQFSLKLSSVTAVDTAVYYCARKDSGNYFPYWGQGTLVTVSS VL: EIVLTQSPDFQSVTPKEKVTITCRASQSISDHLHWYQQKPDQSPKLLIKYASHAISGVPSRFSGSGSGTDFTLTINSLEAEDAATYYCQQGYEFPLTFGGGTKVEIK")
0.017
>>> quantitative_result("1E11.C2E3 antibody (IgG1) (antibody, V domains shown) VH: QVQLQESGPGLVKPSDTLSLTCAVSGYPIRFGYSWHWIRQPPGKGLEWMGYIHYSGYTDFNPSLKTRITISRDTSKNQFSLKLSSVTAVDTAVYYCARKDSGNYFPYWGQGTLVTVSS VL: EIVLTQSPDFQSVTPKEKVTITCRASQSISDHLHWYQQKPDQSPKLLIKYASHAISGVPSRFSGSGSGTDFTLTINSLEAEDAATYYCQQGYDFPLTFGGGTKVEIK")
0.016
>>> quantitative_result("1E11.E2 antibody (IgG1) (antibody, V domains shown) VH: QVQLQESGPGLVKPSDTLSLTCAVSGYSITGGYSWHWIRQPPGKGLEWMGYIHYSGYTDFNPSLKTRITISRDTSKNQFSLKLSSVTAVDTAVYYCARKDSGNYFPYWGQGTLVTVSS VL: EIVLTQSPDFQSVTPKEKVTITCRASQSISDHLHWYQQKPDQSPKLLIKYASHAISGVPSRFSGSGSGTDFTLTINSLEAEDAATYYCQQGYDEPFTFGGGTKVEIK")
0.315
